- System: binding of antibody A46-B/B10 to bovine synapsin I
- assay.explanation: Competition ELISA
- measurement.context: competitors 0.078-5 mM
measurement.label: inhibition of antibody binding to synapsin Ia and Ib

- CC(=O)N[C@H]1C(O)O[C@H](CO)[C@@H](O)[C@@H]1O (stereo partly drawn): did not compete
- O=C[C@H](O)[C@@H](O)[C@H](O)[C@H](O)CO: did not compete
- O=C[C@H](O)[C@@H](O)[C@@H](O)[C@H](O)CO: did not compete
